# System: VGLUTs (GLU vesicular transport)
# protocol_text: Vesicular glutamate reuptake test ([3H]-glutamate, synaptic vesicles)
# Assay type: biochemical, rat
# measurement_setup: 20 μM; coumarin-derived compounds
endpoint_name: % inhibition of GLU vesicular transport at 20 μM (%)
One number for each entry, in %.

Prompt: I am curious: what % inhibition of GLU vesicular transport at 20 μM value has been reported for "COc1cc(Br)ccc1/N=N/c1cc(OC)c2oc(=O)c(C(=O)O)cc2c1" ?
Response: 9

For each listed entry, give its % inhibition of GLU vesicular transport at 20 μM.
1. COc1cc2oc(=O)c(C(=O)O)cc2cc1/C=C/c1ccccc1
2. O=C(O)c1cc2cc(-n3cc(-c4ccccc4)nn3)ccc2oc1=O

Response:
30
48

For each listed entry, give its % inhibition of GLU vesicular transport at 20 μM.
1. O=C(O)c1cc2cc(/N=N/c3ccc(Br)cc3)ccc2oc1=O
2. O=C(O)c1cc2cc(/N=N/c3ccc(Br)cc3)c(O)cc2oc1=O
3. Nc1ccc(-c2ccc(-c3cn(-c4ccc5oc(=O)c(C(=O)O)cc5c4)nn3)cc2)cc1
4. O=C(O)c1cc2cc(C#Cc3ccccc3)c(O)cc2oc1=O
5. COc1cc2oc(=O)c(C(=O)O)cc2cc1-n1cc(-c2ccc(-c3ccc(N)cc3)cc2)nn1
6. O=C(O)c1cc2cc(/C=C/c3ccccc3)ccc2oc1=O

Response:
1: 14; 2: 10; 3: 6; 4: 20; 5: 100; 6: 30

====

# protocol_text: Fluorimetry: absorption and emission spectra, Stokes shift, molar absorption coefficient, quantum efficiency
# Type: physicochemical
# Design: unit not given here
# measurement_setup: phosphate buffer pH 5.5 (0.2 M)
Task for the reader: assign each of the following compounds its reported λmax abs.
Give bare numbers.

For each listed entry, give its λmax abs.
1. CCOC(=O)c1cc2cc(-n3cc(-c4ccc(-c5ccc(N)cc5)cc4)nn3)ccc2oc1=O
2. CCOC(=O)c1cc2cc(-n3cc(-c4ccc(-c5ccc(N)cc5)cc4)nn3)c(OC)cc2oc1=O
3. Nc1ccc(-c2ccc(-c3cn(-c4ccc5oc(=O)c(C(=O)O)cc5c4)nn3)cc2)cc1
4. CCOC(=O)c1cc(C(=O)OCC)c2cc(-c3ccc(-c4ccccc4)cc3)ccc2n1

Response:
365
330
365
365

====

# protocol_text: Fluorimetry: absorption and emission spectra, Stokes shift, molar absorption coefficient, quantum efficiency
# Type: physicochemical
# Parameters: unit not given here
# measurement_setup: phosphate buffer pH 5.5 (0.2 M)
Please use rule met for λmax em under 400 and rule not met for everything else, ties included.

Prompt: Is λmax em strictly under 400 for the entry "CCOC(=O)c1cc2cc(-n3cc(-c4ccc(-c5ccc(N)cc5)cc4)nn3)c(OC)cc2oc1=O" ?
Response: rule met

Prompt: Is λmax em strictly under 400 for the entry "COc1cc2oc(=O)c(C(=O)O)cc2cc1-n1cc(-c2ccc(-c3ccc(N)cc3)cc2)nn1" ?
Response: rule met

Prompt: Is λmax em strictly under 400 for the entry "CCOC(=O)c1cc(C(=O)OCC)c2cc(-c3ccc(-c4ccccc4)cc3)ccc2n1" ?
Response: rule not met

====

Task for the reader: assign each of the following compounds its reported λmax em.
# protocol_text: Fluorimetry: absorption and emission spectra, Stokes shift, molar absorption coefficient, quantum efficiency
# Assay type: physicochemical
# Parameters: unit not given here
# measurement_setup: DMSO
Numbers only.

Prompt: I am curious: what λmax em value has been reported for "CCOC(=O)c1cc2cc(-n3cc(-c4ccc(-c5ccc(N)cc5)cc4)nn3)ccc2oc1=O" ?
Response: 407

Prompt: I am curious: what λmax em value has been reported for "Nc1ccc(-c2ccc(C#Cc3cc4cc(C(=O)O)c(=O)oc4cc3O)cc2)cc1" ?
Response: 460

Continuing:
Prompt: I am curious: what λmax em value has been reported for "O=C(O)c1cc(C(=O)O)c2cc(-c3ccc(-c4ccccc4)cc3)ccc2n1" ?
Response: 415
